- System: Escherichia coli

# compound, targetOrSystem, unitName, valuePrefix, MIC
data = [
    ("CC[C@H](C)[C@H](NC(=O)[C@H](CC(C)C)NC(=O)[C@H](C)NC(=O)[C@@H]1CCCN1C(=O)[C@H](CO)NC(=O)CN)C(=O)N[C@@H](CO)C(=O)N[C@@H](Cc1c[nH]c2ccccc12)C(=O)N[C@H](C(=O)N[C@@H](CCCCN)C(=O)N[C@@H](CCCN=C(N)N)C(=O)N[C@@H](CCCCN)C(=O)N[C@@H](CCCN=C(N)N)C(=O)N[C@@H](CCC(N)=O)C(=O)N[C@@H](CCC(N)=O)C(N)=O)[C@@H](C)CC [GSPALISWIKRKRQQ]", "Escherichia coli", "µM", ">", 153),
    ("CC(C)C[C@H](NC(=O)[C@H](CCCCN)NC(=O)[C@H](Cc1ccccc1)NC(=O)[C@@H](NC(=O)[C@H](CCCCN)NC(=O)CNC(=O)[C@H](CC(C)C)NC(=O)[C@@H](N)Cc1ccccc1)C(C)C)C(=O)N[C@@H](C)C(=O)N[C@@H](CO)C(=O)N[C@@H](CCCCN)C(=O)N[C@H](C(=O)N[C@@H](Cc1ccccc1)C(=O)N1CCC[C@H]1C(=O)N[C@@H](C)C(=O)N[C@H](C(=O)N[C@@H](Cc1ccccc1)C(=O)NCC(=O)N[C@@H](CCCCN)C(=O)N[C@H](C(=O)O)C(C)C)C(C)C)C(C)C [FLGKVFKLASKVFPAVFGKV]", "Escherichia coli", "µM", "=", 7.33),
]

---

Here the recorded MIC is given for each entry.
- Tested on: Pseudomonas aeruginosa ATCC 27853
- protocolNotes: ≥ marks a high value that may be exact or a test limit, other limits are often not marked, values filed in µg/mL are converted to µM

# compound, targetOrSystem, MIC
rows = [
    ("CC(C)C[C@H](NC(=O)[C@H](C)NC(=O)CNC(=O)[C@H](CC(C)C)NC(=O)[C@@H](N)Cc1ccccc1)C(=O)N[C@@H](Cc1c[nH]c2ccccc12)C(=O)N[C@@H](CC(N)=O)C(=O)N[C@H](C(=O)N[C@@H](C)C(=O)N[C@@H](CCCCN)C(=O)N[C@@H](CCCN=C(N)N)C(=O)N[C@H](C(=O)N[C@@H](Cc1ccccc1)C(N)=O)C(C)C)C(C)C [FLGALWNVAKRVF]", "Pseudomonas aeruginosa ATCC 27853", "12.5 µM"),
    ("CC[C@H](C)[C@H](N)C(=O)N[C@@H](CC(=O)O)C(=O)N[C@@H](Cc1c[nH]c2ccccc12)C(=O)N[C@@H](CCCCN)C(=O)N[C@@H](CCCCN)C(=O)N[C@@H](CC(C)C)C(=O)N[C@@H](CC(C)C)C(=O)N[C@@H](CC(=O)O)C(=O)N[C@@H](C)C(=O)N[C@@H](C)C(=O)N[C@@H](CCCCN)C(=O)N[C@@H](CCC(N)=O)C(=O)N[C@H](C(=O)N[C@@H](CC(C)C)C(N)=O)[C@@H](C)CC [IDWKKLLDAAKQIL]", "Pseudomonas aeruginosa ATCC 27853", "128 µM"),
    ("C[C@H](NC(=O)[C@H](CCCN=C(N)N)NC(=O)[C@H](Cc1c[nH]c2ccccc12)NC(=O)[C@H](Cc1c[nH]c2ccccc12)NC(=O)[C@H](Cc1c[nH]c2ccccc12)NC(=O)[C@@H]1CCCN1C(=O)[C@H](CCCN=C(N)N)NC(=O)[C@H](CCCN=C(N)N)NC(=O)CN)C(=O)N[C@@H](CCCN=C(N)N)C(N)=O [GRRPWWWRAR]", "Pseudomonas aeruginosa ATCC 27853", "21.9 µM"),
]

---

- Test system: Salmonella enterica subsp. enterica serovar Pullorum ATCC 7913
measuredParameter: MIC (µM)

# inputSmiles, measuredResult
records = [
    ("CC(C)C[C@H](NC(=O)[C@H](CC(C)C)NC(=O)[C@H](CCCN=C(N)N)NC(=O)[C@H](CCCN=C(N)N)NC(=O)[C@H](CC(C)C)NC(=O)[C@H](CCCN=C(N)N)NC(=O)[C@H](CCCN=C(N)N)NC(=O)[C@H](CC(C)C)NC(=O)[C@H](CC(C)C)NC(=O)[C@@H](N)CCCN=C(N)N)C(=O)N[C@@H](CCCN=C(N)N)C(N)=O", 8),
]

---

Here the recorded MIC is given for each entry.
- Tested on: Pseudomonas aeruginosa ATCC 9027
- protocolNotes: ≥ marks a high value that may be exact or a test limit, other limits are often not marked, values filed in µg/mL are converted to µM

# compound, valuePrefix, MIC (µM)
data = [
    ("CC[C@H](C)[C@H](NC(=O)CNC(=O)[C@H](C)NC(=O)[C@@H](NC(=O)[C@H](CC(C)C)NC(=O)[C@H](CCCCN)NC(=O)[C@@H](NC(=O)[C@@H](N)CC(C)C)C(C)C)C(C)C)C(=O)N[C@@H](CCCCN)C(=O)N[C@@H](CCCCN)C(=O)N[C@@H](Cc1ccccc1)C(=O)N[C@@H](CC(C)C)C(=O)N[C@@H](CCCCN)C(=O)N[C@@H](Cc1c[nH]c2ccccc12)C(=O)N[C@@H](CCCCN)C(N)=O [LVKLVAGIKKFLKWK]", "=", 4.52),
    ("CC(C)C[C@H](NC(=O)[C@H](CCCCN)NC(=O)[C@H](Cc1ccccc1)NC(=O)[C@H](CC(C)C)NC(=O)[C@H](CC(C)C)NC(=O)[C@H](CCCCN)NC(=O)[C@@H](N)CCCCN)C(=O)N[C@@H](CCCCN)C(=O)N[C@@H](Cc1ccccc1)C(=O)N[C@@H](CCCCN)C(N)=O [KKLLFKLKFK]", "=", 1.21),
    ("CC(C)C[C@H](NC(=O)[C@H](CS)NC(=O)[C@H](CCCCN)NC(=O)[C@H](C)NC(=O)[C@H](C)NC(=O)[C@H](CS)NC(=O)[C@H](C)NC(=O)[C@H](C)NC(=O)[C@@H](N)CC(=O)O)C(=O)N[C@@H](Cc1c[nH]c2ccccc12)C(=O)N[C@@H](CCCN=C(N)N)C(N)=O [DAACAAKCLWR]", ">", 166),
    ("CC[C@H](C)[C@H](N)C(=O)N[C@H]1CSSC[C@@H](C(=O)N[C@H](C(=O)O)[C@@H](C)CC)NC(=O)[C@H](Cc2cnc[nH]2)NC(=O)[C@H](Cc2cnc[nH]2)NC1=O [ICHHCI]", ">", 706),
    ("CC(C)C[C@H](NC(=O)[C@H](C)NC(=O)[C@H](Cc1ccccc1)NC(=O)[C@H](CCCCN)NC(=O)[C@H](CCCCN)NC(=O)[C@H](CC(C)C)NC(=O)[C@H](C)NC(=O)[C@H](CCCCN)NC(=O)[C@H](C)NC(=O)[C@H](CC(C)C)NC(=O)[C@H](CC(C)C)NC(=O)[C@H](CCCCN)NC(=O)[C@H](C)NC(=O)[C@@H](N)Cc1ccccc1)C(N)=O [FAKLLAKALKKFAL]", "=", 16),
    ("CC[C@H](C)[C@H](NC(=O)[C@H](C)NC(=O)[C@H](CCCCN)NC(=O)[C@@H](NC(=O)[C@@H](NC(=O)[C@H](CC(=O)O)NC(=O)[C@H](Cc1ccccc1)NC(=O)[C@H](CC(C)C)NC(=O)CN)[C@@H](C)CC)[C@@H](C)CC)C(=O)N[C@@H](C)C(=O)N[C@@H](CCC(=O)O)C(=O)N[C@@H](CO)C(=O)N[C@@H](Cc1ccccc1)C(N)=O [GLFDIIKAIAESF]", ">", 360),
    ("CC[C@H](C)[C@H](NC(=O)[C@H](C)NC(=O)[C@H](CCCCN)NC(=O)[C@@H]1CCCN1C(=O)[C@@H](NC(=O)[C@H](CC(C)C)NC(=O)[C@H](CCCCN)NC(=O)[C@H](Cc1ccccc1)NC(=O)[C@H](CC(C)C)NC(=O)[C@@H](N)Cc1ccccc1)[C@@H](C)CC)C(=O)N[C@@H](CCCCN)C(=O)N[C@@H](CCCCN)C(=O)N[C@@H](CC(C)C)C(=O)N[C@H](C(=O)N[C@@H](CO)C(=O)N[C@@H](CCCCN)C(=O)N[C@@H](Cc1ccccc1)C(=O)N[C@@H](CCCCN)C(=O)O)[C@@H](C)CC [FLFKLIPKAIKKLISKFK]", "=", 5),
]

---

- System: Pseudomonas aeruginosa
- protocolNotes: ≥ marks a high value that may be exact or a test limit, other limits are often not marked, values filed in µg/mL are converted to µM
Here the recorded MIC is given for each entry.

# molecule, targetOrSystem, valuePrefix, MIC (µM)
data = [
    ("CC[C@H](C)[C@H](NC(=O)[C@@H]1CCCN1C(=O)[C@H](Cc1ccccc1)NC(=O)[C@@H](N)Cc1ccccc1)C(=O)N[C@H](C(=O)NCC(=O)N[C@@H](CCCCN)C(=O)N[C@@H](CC(C)C)C(=O)N[C@@H](CC(C)C)C(=O)N[C@@H](Cc1ccccc1)C(=O)NCC(=O)N[C@@H](CC(C)C)C(=O)N[C@@H](CO)C(=O)NCC(=O)N[C@@H](CC(C)C)C(=O)N[C@@H](CC(C)C)C(N)=O)C(C)C [FFPIVGKLLFGLSGLL]", "Pseudomonas aeruginosa", "=", 2.91),
    ("CC(C)[C@@H]1NC(=O)[C@H](CCCN=C(N)N)NC(=O)[C@H](C)NC(=O)[C@@H](NC(=O)[C@H](Cc2c[nH]c3ccccc23)NC(=O)[C@@H](N)CCCCN)CSSC[C@@H](C(=O)N[C@@H](CCCN=C(N)N)C(=O)O)NC(=O)[C@H](CCCN=C(N)N)NC(=O)[C@H](CCCN=C(N)N)NC(=O)[C@H](Cc2ccc(O)cc2)NC(=O)[C@@H]2CSSC[C@H](NC1=O)C(=O)N[C@@H](C)C(=O)N[C@@H](CCCN=C(N)N)C(=O)NCC(=O)N[C@@H](C)C(=O)N2 [KWCARVCARGACYRRCR]", "Pseudomonas aeruginosa", ">", 7.77),
    ("CC[C@H](C)[C@H](NC(=O)[C@H](C)NC(=O)CNC(=O)[C@@H](NC(=O)[C@H](CCCCN)NC(=O)[C@H](CCCCN)NC(=O)[C@@H](NC(=O)[C@H](C)NC(=O)CNC(=O)[C@H](Cc1c[nH]c2ccccc12)NC(=O)[C@H](CCCCN)NC(=O)[C@H](CCCCN)NC(=O)[C@@H](NC(=O)[C@H](C)NC(=O)CNC(=O)[C@@H](NC(=O)[C@H](CCCCN)NC(=O)[C@@H](N)CCCCN)[C@@H](C)CC)[C@@H](C)CC)[C@@H](C)CC)[C@@H](C)CC)C(N)=O [KKIGAIKKWGAIKKIGAI]", "Pseudomonas aeruginosa", "=", 66.5),
    ("CC[C@H](C)[C@H](N)C(=O)N[C@@H](CC(N)=O)C(=O)N[C@@H](Cc1c[nH]c2ccccc12)C(=O)N[C@@H](CCCCN)C(=O)N[C@@H](CCCCN)C(=O)N[C@H](C(=O)N[C@@H](C)C(=O)N[C@@H](CO)C(=O)N[C@H](C(=O)NCC(=O)N[C@@H](CCCCN)C(=O)N[C@@H](CCC(=O)O)C(=O)N[C@H](C(=O)N[C@@H](CC(C)C)C(=O)N[C@@H](CCCCN)C(=O)N[C@@H](C)C(=O)N[C@@H](CC(C)C)C(N)=O)C(C)C)[C@@H](C)CC)[C@@H](C)CC [INWKKIASIGKEVLKAL]", "Pseudomonas aeruginosa", "=", 86.6),
    ("CC[C@H](C)[C@H](NC(=O)CN)C(=O)N[C@@H](Cc1c[nH]c2ccccc12)C(=O)N[C@@H](CCCCN)C(=O)N[C@@H](CO)C(=O)N[C@@H](CC(C)C)C(=O)N[C@@H](Cc1ccccc1)C(=O)N[C@H](C(=O)N[C@@H](CCCCN)C(=O)N[C@@H](CC(C)C)C(=O)N[C@@H](CC(C)C)C(=O)N[C@@H](CCCCN)C(=O)NCC(N)=O)[C@@H](C)O [GIWKSLFTKLLKG]", "Pseudomonas aeruginosa", "=", 10.1),
]
